system: Escherichia coli TOP10; assay: shrunken log2 fold change of peptide-encoding DNA abundance (4.5 h post-induction vs induction); higher = less antimicrobial activity (less host growth inhibition); details: time post-induction: 4.5 h; library: site-saturation at positions 5, 18, 19, 20
We use -0.4 as the dividing line for shrunken log2 fold change: on or above the line is Satisfied, below is Not satisfied.

Dear colleague, could you confirm whether `RRIRERPPRLPRPRPRPLHWPRP` has shrunken log2 fold change at or above -0.4?
Satisfied

Subsequent entry: `RRIRPRPPRLPRPRPRPKAAPRP`
Satisfied

---

Recorded shrunken log2 fold change, one value per entry.
test system: Escherichia coli TOP10; assay: shrunken log2 fold change of peptide-encoding DNA abundance (4.5 h post-induction vs induction); higher = less antimicrobial activity (less host growth inhibition); conditions: time post-induction: 4.5 h; library: site-saturation at positions 5, 18, 19, 20
// print number alone

RRIRGRPPRLPRPRPRPCCAPRP
1.55
RRIRARPPRLPRPRPRPWELPRP
0.0412
RRIRPRPPRLPRPRPRPNTNPRP
-0.329
RRIRSRPPRLPRPRPRPCWTPRP
-0.306
RRIRYRPPRLPRPRPRPHDIPRP
-0.00174

Entry `RRIRKRPPRLPRPRPRPGTEPRP` : reported shrunken log2 fold change = ?
0.542

Subsequent entry: `RRIRERPPRLPRPRPRPQMFPRP`
0.0221

Subsequent entry: `RRIRWRPPRLPRPRPRPAPLPRP`
0.512

Subsequent entry: `RRIRKRPPRLPRPRPRPGQYPRP`
0.0797

Subsequent entry: `RRIRYRPPRLPRPRPRPLSWPRP`
-0.0279

---

system: Escherichia coli TOP10; test: shrunken log2 fold change of peptide-encoding DNA abundance (4.5 h post-induction vs induction); higher = less antimicrobial activity (less host growth inhibition); settings: time post-induction: 4.5 h; library: site-saturation at positions 5, 18, 19, 20
PROPERTY: shrunken log2 fold change
// print number alone

# example entries with known answers
RRIRVRPPRLPRPRPRPLQAPRP
0.432
RRIRSRPPRLPRPRPRPYRHPRP
-0.542
RRIRGRPPRLPRPRPRPVWIPRP
0.276
RRIRPRPPRLPRPRPRPRSMPRP
0.0858
RRIRFRPPRLPRPRPRPGSGPRP
0.161

Then there is this sequence:
Entry `RRIRARPPRLPRPRPRPWLDPRP` : reported shrunken log2 fold change = ?
0.0658

---

test system: Escherichia coli TOP10; assay: shrunken log2 fold change of peptide-encoding DNA abundance (4.5 h post-induction vs induction); higher = less antimicrobial activity (less host growth inhibition); conditions: time post-induction: 4.5 h; library: site-saturation at positions 5, 18, 19, 20;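 note: peptides expressed intracellularly from a pBAD plasmid library in pooled LB shake-flask culture, induced with 0.3% L-arabinose, DNA abundance read by NGS, three biological replicates, DESeq2 with apeglm shrinkage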
We use -0.1 as the dividing line for shrunken log2 fold change: on or above the line is True, below is False.

Before answering, review these 3 worked examples.
RRIRERPPRLPRPRPRPDVWPRP
True
RRIRIRPPRLPRPRPRPQTAPRP
True
RRIRQRPPRLPRPRPRPMINPRP
True

Dear colleague, could you confirm whether `RRIRPRPPRLPRPRPRPGLYPRP` has shrunken log2 fold change at or above -0.1?
False

Subsequent entry: `RRIRERPPRLPRPRPRPLLEPRP`
True

Subsequent entry: `RRIRVRPPRLPRPRPRPFVIPRP`
False
